- target under test: Tyrosinase (Agaricus bisporus, UniProt O42713)
pIC50: −log10 of the molar value.
measured endpoint: pIC50

* COc1cc(/C=C/C(=O)NCCc2c[nH]c3ccc(O)cc23)ccc1O [N-FERULOYL SEROTONIN] | 5.10

P = COc1ccc(/C=C/C(=O)NCCc2c[nH]c3ccc(O)cc23)cc1O [N-ISOFERULOYL SEROTONIN]
Q = O=C(/C=C/c1ccccc1)NCCc1c[nH]c2ccc(O)cc12 [N-CINNAMOYL SEROTONIN]
Quick one: lower pIC50, P or Q ? Refer to your chosen item by its label in the answer.
Q

---

# IC50 values compiled below
- target under test: Tyrosinase (Agaricus bisporus, UniProt O42713)
- Sequence (O42713 whole entry): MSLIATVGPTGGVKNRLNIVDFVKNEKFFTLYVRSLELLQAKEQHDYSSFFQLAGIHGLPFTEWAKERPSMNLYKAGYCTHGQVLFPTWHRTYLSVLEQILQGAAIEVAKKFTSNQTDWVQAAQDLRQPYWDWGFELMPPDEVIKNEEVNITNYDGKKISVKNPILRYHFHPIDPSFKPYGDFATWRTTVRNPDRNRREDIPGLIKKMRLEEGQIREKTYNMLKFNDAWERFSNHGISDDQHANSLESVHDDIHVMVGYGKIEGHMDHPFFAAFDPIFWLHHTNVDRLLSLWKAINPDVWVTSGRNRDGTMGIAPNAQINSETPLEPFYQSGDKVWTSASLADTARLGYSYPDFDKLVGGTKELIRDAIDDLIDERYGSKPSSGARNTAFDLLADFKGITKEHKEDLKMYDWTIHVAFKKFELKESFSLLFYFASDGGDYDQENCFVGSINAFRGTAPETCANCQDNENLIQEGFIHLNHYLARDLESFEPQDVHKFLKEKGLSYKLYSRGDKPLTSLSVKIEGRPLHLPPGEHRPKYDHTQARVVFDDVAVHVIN

Example entries and their recorded answers appear below.
* COc1cc(/C=C/C(=O)O)cc(OC)c1O [SINAPINATE] | > 351 µM
* NCCc1c[nH]c2ccc(O)cc12 | > 350 µM

GET /value?item= COc1cc(/C=C/C(=O)O)ccc1O [FERULATE] &field=IC50 returns > 350 µM
